target: IL-15 (Homo sapiens, UniProt P40933)
Sequence (P40933 49-162): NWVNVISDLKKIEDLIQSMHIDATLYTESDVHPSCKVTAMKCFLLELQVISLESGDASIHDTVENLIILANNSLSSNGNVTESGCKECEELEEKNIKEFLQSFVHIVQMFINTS
pKd: −log10 of the molar value.

binder: rILR-Fc (IL-15Rα-Sushi-Fc) Sushi (protein, Fc fusion) TRGITCPPPMSVEHADIWVKSYSLYSRERYICNSGFKRKAGTSSLTECVLNKATNVAHWTTPSLKCIRDPA
pKd: 9.62

Sourced from paper PMC12114846
